targetUnderTest: human TLR7 (Homo sapiens, UniProt Q9NYK1)
Construct: host or cells: HEK293 (HEK-Blue hTLR7)
Sequence (Q9NYK1 27-1049): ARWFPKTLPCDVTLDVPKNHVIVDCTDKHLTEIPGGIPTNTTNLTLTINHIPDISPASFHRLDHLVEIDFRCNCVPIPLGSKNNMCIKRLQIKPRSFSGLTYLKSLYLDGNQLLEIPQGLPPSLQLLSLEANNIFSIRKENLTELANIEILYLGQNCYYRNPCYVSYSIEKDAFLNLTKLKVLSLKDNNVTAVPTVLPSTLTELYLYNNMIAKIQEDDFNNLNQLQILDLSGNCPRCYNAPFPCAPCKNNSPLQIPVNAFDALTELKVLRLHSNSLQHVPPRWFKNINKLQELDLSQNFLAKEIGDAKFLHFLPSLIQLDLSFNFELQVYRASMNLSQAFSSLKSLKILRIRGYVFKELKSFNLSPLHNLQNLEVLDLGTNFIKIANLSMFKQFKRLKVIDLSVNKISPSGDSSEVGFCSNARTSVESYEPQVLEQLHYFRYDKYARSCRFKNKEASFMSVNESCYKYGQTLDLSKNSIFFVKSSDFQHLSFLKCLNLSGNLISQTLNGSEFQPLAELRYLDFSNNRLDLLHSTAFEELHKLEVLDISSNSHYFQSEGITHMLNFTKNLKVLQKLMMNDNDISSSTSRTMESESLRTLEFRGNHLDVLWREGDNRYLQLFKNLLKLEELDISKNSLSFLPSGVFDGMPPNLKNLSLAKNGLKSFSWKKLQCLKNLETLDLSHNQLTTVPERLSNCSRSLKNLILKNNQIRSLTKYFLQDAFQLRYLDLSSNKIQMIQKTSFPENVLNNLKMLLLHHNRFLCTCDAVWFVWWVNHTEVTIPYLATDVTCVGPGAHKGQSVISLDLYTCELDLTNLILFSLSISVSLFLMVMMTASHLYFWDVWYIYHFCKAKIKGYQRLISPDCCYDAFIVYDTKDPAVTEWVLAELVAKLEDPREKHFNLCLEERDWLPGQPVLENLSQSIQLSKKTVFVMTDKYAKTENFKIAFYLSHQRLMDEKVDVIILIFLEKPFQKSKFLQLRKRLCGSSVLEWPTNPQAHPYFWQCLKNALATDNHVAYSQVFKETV
procedureDetails: HEK-Blue hTLR7 reporter cell assay (SEAP, NF-kB/AP-1) for stimulation of human TLR7
Assay type: cell-based
conditionNotes: HEK-Blue hTLR7 cells, 24 h incubation, SEAP readout; read-out: TLR7_EC50
Counter-ions that a name gives are not always drawn.
Param label: returns rule met when EC50 < 300 nM, returns rule not met otherwise, including exact equality.

compound	cat
CCCCc1nc2c(N)nnc(OC(C)C)c2n1Cc1ccc(OC)cc1 [Compound 1]	rule met
CCCCc1nc2c(N)nnc(C3=CCOC3)c2n1Cc1ccc(OC)cc1 [Compound 73]	rule not met
CCCCc1nc2c(N)nnc(C(C)C)c2n1Cc1ccc(OC)cc1 [Compound 18]	rule not met
CCCCc1nc2c(N)nnc(N(C)Cc3ccccc3)c2n1C [Compound 90]	rule not met
CCCCc1nc2c(N)nnc(O)c2n1Cc1ccc(OC)cc1 [Compound 93]	rule not met
CCCSc1nc2c(N)nnc(OC(C)C)c2n1Cc1ccc(CN)cc1 [Compound 161]	rule met
CCCCc1nc2c(N)nnc(OCC)c2n1Cc1ccc(OC)cc1 [Compound 48]	rule met
CCCCc1nc2c(N)nnc(-c3ccco3)c2n1Cc1ccc(OC)cc1 [Compound 55]	rule not met
CCCCc1nc2c(N)nnc(OC(C)C)c2n1CC1CCCCC1 [Compound 81, hydrochloride]	rule met
CCCCc1nc2c(N)nnc(C3CCOC3)c2n1Cc1ccc(OC)cc1 (stereo not shown) [Compound 59]	rule not met
CCCCc1nc2c(N)nnc(OC(C)C)c2n1Cc1ccccc1 [Compound 80, hydrochloride]	rule met
CCCCc1nc2c(N)nnc(OC(C)C)c2n1CCCCCCN [Compound 146, dihydrochloride salt]	rule met
CCCCCCCCCCNCc1ccc(Cn2c(CCCC)nc3c(N)nnc(OC(C)C)c32)cc1 [Compound 110]	rule not met
CCCCc1nc2c(N)nnc(NCCOC)c2n1Cc1ccc(OC)cc1 [Compound 49]	rule not met
CCCCc1nc2c(N)nnc(OC(C)C)c2n1CC(C)(CO)CO [Compound 156, hydrochloride]	rule met
CCCCc1nc2c(N)nnc(OC(C)C)c2n1Cc1ccc(CN(C)C)cc1 [Compound 116]	rule met
CCCCc1nc2c(N)nnc(CCC(C)C)c2n1Cc1ccc(OC)cc1 [Compound 13]	rule not met

---

targetUnderTest: human TLR8 (Homo sapiens)
Sequence (Q9NR97 27-1041): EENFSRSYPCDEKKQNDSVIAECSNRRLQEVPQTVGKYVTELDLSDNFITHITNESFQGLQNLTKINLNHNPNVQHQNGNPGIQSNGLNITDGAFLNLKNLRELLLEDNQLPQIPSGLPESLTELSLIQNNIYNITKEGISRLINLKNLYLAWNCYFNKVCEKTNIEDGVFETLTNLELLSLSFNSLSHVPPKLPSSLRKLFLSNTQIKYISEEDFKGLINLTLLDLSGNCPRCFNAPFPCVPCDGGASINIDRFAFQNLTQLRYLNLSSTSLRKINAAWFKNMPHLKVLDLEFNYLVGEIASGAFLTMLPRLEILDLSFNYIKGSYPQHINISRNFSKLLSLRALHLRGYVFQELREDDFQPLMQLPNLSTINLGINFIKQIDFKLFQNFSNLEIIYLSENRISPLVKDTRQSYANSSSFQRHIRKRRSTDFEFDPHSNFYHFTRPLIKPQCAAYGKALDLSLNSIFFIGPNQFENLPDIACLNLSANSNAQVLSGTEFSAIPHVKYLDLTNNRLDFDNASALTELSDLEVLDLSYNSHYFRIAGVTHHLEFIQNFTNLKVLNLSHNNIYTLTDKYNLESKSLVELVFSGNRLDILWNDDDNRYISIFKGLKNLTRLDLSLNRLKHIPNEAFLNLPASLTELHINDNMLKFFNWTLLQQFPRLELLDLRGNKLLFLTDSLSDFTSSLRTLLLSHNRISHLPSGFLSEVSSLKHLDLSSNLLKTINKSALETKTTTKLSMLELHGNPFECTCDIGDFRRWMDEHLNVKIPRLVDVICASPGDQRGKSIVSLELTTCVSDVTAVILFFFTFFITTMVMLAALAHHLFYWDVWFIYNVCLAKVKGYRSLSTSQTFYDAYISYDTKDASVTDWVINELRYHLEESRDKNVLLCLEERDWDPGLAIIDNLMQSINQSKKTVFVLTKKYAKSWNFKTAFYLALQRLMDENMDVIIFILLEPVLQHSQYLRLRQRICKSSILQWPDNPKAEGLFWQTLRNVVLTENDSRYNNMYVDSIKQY
procedureDetails: HEK-Blue hTLR8 reporter cell assay (SEAP, NF-kB/AP-1) for stimulation of human TLR8
conditionNotes: HEK-Blue hTLR8 cells, 24 h incubation, SEAP readout; read-out: TLR8_EC50
Structures can show the parent of a compound that is named as a salt.

compound	unitInfo	sign	EC50
CCCCc1nc2c(N)nnc(CC(C)C)c2n1Cc1ccc(OC)cc1 [Compound 61]	µM	>	20
CCCCCCNCc1ccc(Cn2c(CCCC)nc3c(N)nnc(OC(C)C)c32)cc1 [Compound 109]	µM	=	0.243
CCCCc1nc2c(N)nnc(C3CCCCC3)c2n1Cc1ccc(OC)cc1 [Compound 51]	µM	>	20
CCCCc1nc2c(N)nnc(OC3CCCC3)c2n1Cc1ccc(OC)cc1 [Compound 9]	µM	>	20
CCCCc1nc2c(N)nnc(OC(C)C)c2n1Cc1ccc(CNCCOCCOCCOCCOC)cc1 [Compound 121]	µM	=	15.9
CCCCc1nc2c(N)nnc(OC3CC[S+]([O-])C3)c2n1Cc1ccc(OC)cc1 (single isomer, unassigned; isomer b) [Compound 69]	µM	>	20
CCCCc1nc2c(N)nnc(OC(C)C)c2n1Cc1ccc(CN)cc1 [Compound 22, 2,2,2-trifluoroacetate]	µM	=	2.61
CCCCc1nc2c(N)nnc(OC(C)C)c2n1Cc1ccccn1 [Compound 75]	µM	>	20
CCCCc1nc2c(N)nnc(OC(C)C)c2n1Cc1ccc(CNCCOCCOCCOC)cc1 [Compound 120]	µM	=	14.4
CCCCc1nc2c(N)nnc(C3CCCC3)c2n1Cc1ccc(OC)cc1 [Compound 16]	µM	>	20
CCCCc1nc2c(N)nnc(OC(C)C)c2n1C [Compound 86]	µM	=	6.96
CCCCc1nc2c(N)nnc(OC(C)C)c2n1C[C@H]1CCC[C@@H](N)C1 (racemic) [Compound 23]	µM	=	14.6
CCCCc1nc2c(N)nnc(OC(C)C)c2n1CC1CCCCC1 [Compound 81, hydrochloride]	µM	>	20
CCCCc1nc2c(N)nnc(OC(C)C)c2n1CCCCNC1CCOCC1 [Compound 150, hydrochloride salt]	µM	=	11.4
CCCCc1nc2c(N)nnc(C3=CCCC3)c2n1Cc1ccc(OC)cc1 [Compound 15, hydrochloride]	µM	>	20
CCCCc1nc2c(N)nnc(OC(C)C)c2n1Cc1ccc(CNC(=O)CCOCCOC)cc1 [Compound 31]	µM	>	20
CCCCc1nc2c(N)nnc(SC(C)C)c2n1Cc1ccc(OC)cc1 [Compound 3]	µM	>	20
CCCCc1nc2c(N)nnc(-c3cc[nH]c3)c2n1Cc1ccc(OC)cc1 [Compound 14]	µM	>	20
CCCCc1nc2c(N)nnc(C3=CCOC3)c2n1Cc1ccc(OC)cc1 [Compound 73]	µM	>	20
CCCCc1nc2c(N)nnc(/C=C/C(C)C)c2n1Cc1ccc(CN)cc1 [Compound 132]	µM	>	18.5
CCCCc1nc2c(N)nnc(N3CCC(c4ccc(CO)cc4)C3)c2n1C (stereo not shown) [Compound 85, hydrochloride]	µM	=	3.1
CCCCc1nc2c(N)nnc(OC(C)C)c2n1Cc1ccc(CNC2CC2)cc1 [Compound 36]	µM	=	0.448
CCOCc1nc2c(N)nnc(OC(C)C)c2n1Cc1ccc(CN)cc1 [Compound 159]	µM	>	20
CCCCc1nc2c(N)nnc(-c3cnn(C)c3)c2n1Cc1ccc(OC)cc1 [Compound 97]	µM	>	20
CCCCc1nc2c(N)nnc(OC(C)C)c2n1Cc1ccc(CNC(=O)OCc2ccc(OC)cc2)cc1 [Compound 112]	µM	>	20
CCCCc1nc2c(N)nnc(OC(C)C)c2n1C[C@H]1CC[C@H](N)CC1 [Compound 25]	µM	>	20
CCCCc1nc2c(N)nnc(OC(C)C)c2n1Cc1ccc(CNC2(C)CCC2)cc1 [Compound 39]	µM	=	0.401
CCCCc1nc2c(N)nnc(OC(C)C)c2n1Cc1cccc(CNC2CCC2)c1 [Compound 126, dihydrochloride salt]	µM	=	0.382
CCCCc1nc2c(N)nnc(OC(C)C)c2n1Cc1ccc(C#N)cn1 [Compound 27]	µM	>	20
CCCCc1nc2c(N)nnc(OC3CCSC3)c2n1Cc1ccc(OC)cc1 (stereo not shown) [Compound 58]	µM	>	20
CCCCc1nc2c(N)nnc(N3CCCC3)c2n1C [Compound 42]	µM	=	8.78
CCCCc1nc2c(N)nnc(OC(C)C)c2n1Cc1ccc(CNC(C)=O)cc1 [Compound 28]	µM	>	20
CCCCc1nc2c(N)nnc(OC(C)C)c2n1Cc1cccnc1 [Compound 74]	µM	=	17.9
CCCCc1nc2c(N)nnc(OC(C)C)c2n1Cc1ccc(CN2CCNCC2)cc1 [Compound 40]	µM	=	2.29

Numbers sourced from patent US12583861B2.
